Listed molecules paired with reported IC50
molecular target: HDM2 (Homo sapiens); construct: Thioredoxin (N); made in house; host or cells: E. coli strain BL21(DE3)Rosetta; assay: HDM2 FRET assay (inhibition of binding of FITC labeled p53-pocket peptide to HDM2); details: Table 9; read-out: FRET IC50
endpoint_label: IC50 (nM)

1. C[C@@H](Nc1nc(C(=O)O)nc2nc(N3CCOC(C)(C)C3)n(Cc3ccc(C(F)(F)F)cc3)c12)C1CCC1	32.7
2. C[C@@H](Nc1nc(C(=O)O)nc2nc(N3CCCC3c3ccccc3)n(Cc3ccc(C(F)(F)F)cc3)c12)C1CCC1 (single isomer, unassigned) [Example 9.65]	11.4
3. C[C@@H](Nc1nc(-c2noc(=O)[nH]2)nc2nc(N3CCOC[C@H]3c3ccccc3)n(Cc3ccc(C(F)(F)F)cc3)c12)C1CCC1	1.72
4. CCCN(c1nc2nc(-c3noc(=O)[nH]3)nc(N[C@H](C)C3CCC3)c2n1Cc1ccc(C(F)(F)F)cc1)C1CCCCC1	16.2
5. C[C@@H](Nc1nc(C(=O)O)nc2nc(N3CCOCC3)n(Cc3ccc(Cl)cc3)c12)C1CC1	574
6. CCN(CCN1CCCC1)c1nc2nc(-c3noc(=O)[nH]3)nc(N[C@H](C)C3CCC3)c2n1Cc1ccc(C(F)(F)F)cc1	23.9
7. C[C@@H](Nc1nc2nc(C(=O)O)nc(N[C@H](C)C3CCC3)c2n1Cc1ccc(C(F)(F)F)cc1)c1ccccc1	15.8
8. C[C@@H](Nc1nc(C(=O)O)nc2nc(N3CCCCC3Cc3ccc(F)cc3)n(Cc3ccc(C(F)(F)F)cc3)c12)C1CCC1 (stereo partly shown)	7.92
9. C[C@@H](Nc1nc(C(=O)O)nc2nc(N3CCCCC3c3cccnc3)n(Cc3ccc(C(F)(F)F)cc3)c12)C1CCC1 (stereo partly shown)	110
10. CC(C)CN1CCC(CN(C)c2nc3nc(-c4noc(=O)[nH]4)nc(N[C@H](C)C4CCC4)c3n2Cc2ccc(C(F)(F)F)cc2)C1 (stereo partly shown)	144
11. CC(C)CC1COCCN1c1nc2nc(C(=O)O)nc(N[C@H](C)C3CCC3)c2n1Cc1ccc(C(F)(F)F)cc1 (stereo partly shown)	6.07
12. C[C@@H](Nc1nc(C(=O)O)nc2nc(N3CCCCC3)n(Cc3ccc(C(F)(F)F)cc3)c12)C1CCC1	17.6
13. C[C@@H](Nc1nc(-c2noc(=O)[nH]2)nc2nc(N(C)C3CCc4ccccc43)n(Cc3ccc(C(F)(F)F)cc3)c12)C1CCC1 (stereo partly shown)	60.7

----------
molecular target: HDM2 (Homo sapiens); construct: Thioredoxin (N); made in house; host or cells: E. coli strain BL21(DE3)Rosetta; test: FRET assay (HDM2 inhibition; method not described in this part); type: binding; details: Table 5
pIC50: −log10 of the molar value.
Listed compounds paired with reported pIC50
endpoint_label: pIC50

1) Cc1cccc(-c2nc3nc(C(=O)O)nc(N[C@H](C)C4CCC4)c3n2Cc2ccc(C3CC3)cc2)c1	6.57
2) Cc1cccc(-c2nc3nc(C(=O)O)nc(N[C@H](C)C4CC4)c3n2Cc2ccc(OC(F)(F)F)cc2)c1	6.83
3) COc1ccc(Cn2c(-c3cccc(C)c3)nc3nc(C(=O)O)nc(N[C@H](C)C4CCC4)c32)cc1	6.24
4) Cc1cccc(-c2nc3nc(C(=O)O)nc(N[C@H](C)C4CC4)c3n2Cc2ccccc2C(F)(F)F)c1	5.08
5) Cc1cccc(-c2nc3nc(C(=O)O)nc(N[C@H](C)C4CCC4)c3n2Cc2ccc(OC(F)F)cc2)c1	6.89
6) Cc1cccc(-c2nc3nc(C(=O)O)nc(N[C@H](C)C4CC4)c3n2Cc2ccc(C(C)C)cc2)c1	5.45
7) Cc1cccc(-c2nc3nc(C(=O)O)nc(N[C@H](C)C4CCC4)c3n2Cc2ccc(C(F)(F)F)cc2Cl)c1	7.02

----------
biological target: HDM2 (Homo sapiens); construct: Thioredoxin (N); made in house; host or cells: E. coli strain BL21(DE3)Rosetta; experiment: HDM2 FRET assay (inhibition of binding of FITC labeled p53-pocket peptide to HDM2); details: Table 11; read-out: FRET IC50
endpoint_label: IC50 (nM)

1. C[C@@H](Nc1nc(-c2noc(=O)[nH]2)nc2nc(N3CCOCC3c3ccc(Cl)cc3)n(C[C@H]3CC[C@H](C)CC3)c12)C1CCC1 (stereo partly drawn) [Example 11.99]	3.43
2. C[C@@H](Nc1nc(-c2noc(=O)[nH]2)nc2nc(N3CCOCC3c3ccccc3Cl)n(C[C@H]3CC[C@H](C)CC3)c12)C1CCC1 (stereo partly drawn) [Example 11.100]	0.936
3. Cc1noc(C(C)Nc2nc3nc(-c4noc(=O)[nH]4)nc(N[C@H](C)C4CCC4)c3n2C[C@H]2CC[C@H](C)CC2)n1 (stereo partly drawn) [Example 11.90]	4.04
4. CCN(C)c1nc2nc(-c3noc(=O)[nH]3)nc(N[C@H](C)C3CCC3)c2n1C[C@H]1CC[C@H](C)CC1 [Example 11.115]	8.13
5. C[C@@H](Nc1nc(-c2noc(=O)[nH]2)nc2nc(N(C)Cc3cnccn3)n(C[C@H]3CC[C@H](C)CC3)c12)C1CCC1 [Example 11.72]	5.98
6. C[C@@H](Nc1nc(-c2noc(=O)[nH]2)nc2nc(N(C)CC(C)(C)C)n(C[C@H]3CC[C@H](C)CC3)c12)C1CCC1 [Example 11.43]	19.4
7. CC1CCN(c2nc3nc(-c4noc(=O)[nH]4)nc(N[C@H](C)C4CCC4)c3n2C[C@H]2CC[C@H](C)CC2)C(c2ccccc2)C1 (single isomer, unassigned) [Example 11.68]	2.04
8. CCC1CCCCN1c1nc2nc(C(=O)O)nc(N[C@H](C)C3CCC3)c2n1C[C@H]1CC[C@H](C)CC1 (stereo partly drawn) [Example 11.52]	3.43
9. CCCC1CCCN1c1nc2nc(-c3noc(=O)[nH]3)nc(N[C@H](C)C3CCC3)c2n1C[C@H]1CC[C@H](C)CC1 (stereo partly drawn) [Example 11.35]	4.4
10. C[C@@H](Nc1nc(-c2noc(=O)[nH]2)nc2nc(N3CCC[C@H]4CCCC[C@@H]43)n(C[C@H]3CC[C@H](C)CC3)c12)C1CCC1 [Example 11.60]	10.5
11. C[C@@H](Nc1nc(-c2noc(=O)[nH]2)nc2nc(N3CCCC[C@@H]3c3ccccc3)n(C[C@H]3CC[C@H](C)CC3)c12)C1CCC1 [Example 11.13]	26.7
12. C[C@@H](Nc1nc(-c2noc(=O)[nH]2)nc2nc(N(C)Cc3cnn(C)c3)n(C[C@H]3CC[C@H](C)CC3)c12)C1CCC1 [Example 11.71]	24.3

----------
Listed compounds paired with reported log10 of IC50
target: HDM2 (Homo sapiens, UniProt Q00987); construct: Thioredoxin (N); made in house; host or cells: E. coli strain BL21(DE3)Rosetta; test: HDM2 FRET assay (inhibition of binding of FITC labeled p53-pocket peptide to HDM2); details: 0.5 nM HDM2 (residues 17 to 125), 3nM peptide, two hour incubation at room temperature; read-out: FRET IC50
Sequence (Q00987 17-125): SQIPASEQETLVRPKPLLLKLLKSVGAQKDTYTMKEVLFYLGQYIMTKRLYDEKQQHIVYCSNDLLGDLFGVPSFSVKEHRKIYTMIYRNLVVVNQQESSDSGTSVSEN
endpoint_label: log10 of IC50 (log10 of the value in nM)

1) C[C@@H](Nc1nc(C(O)CO)nc2nc(N3CCOC[C@H]3c3ccccc3)n(C[C@H]3CC[C@H](C)CC3)c12)C1CCC1 (stereo partly shown)	1.69
2) C[C@@H](Nc1nc(-c2noc(=O)[nH]2)nc2nc(-c3nccs3)n(C[C@H]3CC[C@H](C)CC3)c12)C1CCC1	0.80
3) C[C@H]1CC[C@H](Cn2c(N3CCOC[C@H]3c3ccccc3)nc3nc(-c4noc(=O)[nH]4)nc(-c4cc(Cl)cc(CO)c4)c32)CC1	-0.69
4) COC(=O)c1nc(N[C@H](C)C2CCC2)c2c(n1)nc(N1CCOC[C@H]1c1ccccc1)n2C[C@H]1CC[C@H](C)CC1	1.69
5) C[C@H]1CC[C@H](Cn2c(N3CCOC[C@H]3c3ccccc3)nc3nc(-c4noc(=O)[nH]4)nc(-c4cc(Cl)cnc4O)c32)CC1	-0.07
6) C[C@H]1CC[C@H](Cn2c(N3CCOC[C@H]3c3ccccc3)nc3nc(-c4noc(=O)[nH]4)nc(-c4cc(Cl)nc(Cl)c4)c32)CC1	0.22
7) CC(C)c1ccnc(-c2nc3nc(C(=O)O)nc(N[C@H](C)C4CCC4)c3n2C[C@H]2CC[C@H](C)CC2)c1 [Example 15.1]	0.11
8) C[C@H]1CC[C@H](Cn2c(N3CCOC[C@H]3c3ccccc3)nc3nc(-c4n[nH]c(=O)o4)nc(C4CCCCC4)c32)CC1	0.96
9) C[C@H]1CC[C@H](Cn2c(C3CC3)nc3nc(-c4noc(=O)[nH]4)nc(-c4cccc(Cl)c4)c32)CC1	1.62
10) C[C@H]1CC[C@H](Cn2c(N3CCOC[C@H]3c3ccccc3)nc3nc(-c4noc(=O)[nH]4)nc(-c4cc(Cl)ccc4F)c32)CC1	0.21
11) CC(C)[S+]([O-])c1nc(N[C@H](C)C2CCC2)c2c(n1)nc(N1CCOC[C@H]1c1ccccc1)n2C[C@H]1CC[C@H](C)CC1 (stereo partly shown)	1.19
12) CC(C)c1ccnc(-c2nc3nc(C(C)(C)O)nc(N[C@H](C)C4CCC4)c3n2C[C@H]2CC[C@H](C)CC2)c1	2.86
13) C[C@H]1COCCN1c1nc2nc(-c3noc(=O)[nH]3)nc(-c3cccc(Cl)c3)c2n1C[C@H]1CC[C@H](C)CC1	2.03
14) C[C@H]1CC[C@H](Cn2c(N[C@@H](CO)c3ccccc3)nc3nc(-c4noc(=O)[nH]4)nc(-c4cccc(Cl)c4)c32)CC1	0.29
15) Cc1cccc(-c2nc3nc(C(N)=O)nc(N[C@H](C)C4CCC4)c3n2Cc2ccc(C(F)(F)F)cc2)c1	3.15
16) Cc1cccc(-c2nc3nc(C(=O)O)nc(OCC4CCC4)c3n2Cc2ccc(C(F)(F)F)cc2)c1	2.28
17) Cc1ncc(Cl)cc1-c1nc(-c2noc(=O)[nH]2)nc2nc(N3CCOC[C@H]3c3ccccc3)n(C[C@H]3CC[C@H](C)CC3)c12	-0.22
18) C[C@H]1CC[C@H](Cn2c(N3CCOC[C@H]3c3ccccc3)nc3nc(-c4n[nH]c(=O)o4)nc(-c4cc(Cl)cnc4O)c32)CC1	0.09
19) C[C@@H]1OCCN(c2nc3nc(-c4noc(=O)[nH]4)nc(-c4cncc(Cl)c4)c3n2C[C@H]2CC[C@H](C)CC2)[C@@H]1c1ccccc1	1.34
20) C[C@H]1CC[C@H](Cn2c(N3CCOC[C@H]3c3ccccc3)nc3nc(-c4noc(=O)[nH]4)nc(-c4cncc(Cl)c4)c32)CC1	-0.29
21) CC(C)c1ccnc(-c2nc3nc(CO)nc(N[C@H](C)C4CCC4)c3n2Cc2ccc(C(F)(F)F)cc2)c1	2.78
22) C[C@H]1CC[C@H](Cn2c(N3CCOC[C@H]3c3ccccc3)nc3nc(-c4noc(=O)[nH]4)nc(-c4ccc(F)c(Cl)c4)c32)CC1	0.75
23) CCN(c1nc(-c2noc(=O)[nH]2)nc2nc(-c3cc(C(C)C)ccn3)n(C[C@H]3CC[C@H](C)CC3)c12)[C@H](C)C1CCC1	2.85
24) C[C@@H](Nc1nc(NC(C)(C)C(=O)O)nc2nc(N3CCOC[C@H]3c3ccccc3)n(C[C@H]3CC[C@H](C)CC3)c12)C1CCC1	2.41
25) CC(C)c1ccnc(-c2nc3nc(C(=O)O)nc(N[C@H](C)C4CCC4)c3n2C[C@H]2CC[C@H](C)CC2)c1 [Example 15.15]	0.41
